TARGET OR TEST SYSTEM: SfurOBP2 (Sogatella furcifera, UniProt V5T759)
Sequence (V5T759 entry or part of it): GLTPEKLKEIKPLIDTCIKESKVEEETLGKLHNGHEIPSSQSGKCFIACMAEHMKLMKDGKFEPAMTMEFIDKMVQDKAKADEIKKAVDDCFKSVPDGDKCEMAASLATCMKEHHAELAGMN
PROTOCOL NOTES: biochemical
Assay type: binding
SETTINGS: ligand concentration 4 (unit not given), replicate column 2 of 3
PROPERTY MEASURED: Fluorescence competitive binding assay, OBP2 (raw fluorescence reading)

Study these solved cases before continuing.
INSERT INTO results (compound, value_observed) VALUES
  ('CCCCCC(C)=O', 18012),
  ('CCCCCCCCCCCCCCCC(=O)OC [MH(methyl hexadecanoate)]', 39967),
  ('Cc1cc(C(C)(C)C)c(O)c(C(C)(C)C)c1', 16711);

We now examine a further compound.
Please tell me: Fluorescence competitive binding assay, OBP2 (raw fluorescence reading) of CCCCCCCCCCCCO , system SfurOBP2 (Sogatella furcifera, UniProt V5T759)?
19639

----------
TARGET OR TEST SYSTEM: SfurOBP2 (Sogatella furcifera, UniProt V5T759)
PROTOCOL NOTES: biochemical
Assay type: binding
SETTINGS: ligand concentration 12 (unit not given), replicate column 1 of 3
Below, each entry is listed with its recorded Fluorescence competitive binding assay, OBP2 (raw fluorescence reading).
# output: bare number, no unit

INSERT INTO results (compound, value_observed) VALUES
  ('COC(=O)c1ccccc1', 14659),
  ('CCCCCC=O', 15600),
  ('C=C/C(C)=C/C/C=C(\C)CCC=C(C)C', 15563),
  ('Cc1cc(C(C)(C)C)c(O)c(C(C)(C)C)c1', 14856),
  ('CCCCCCCCCCCCCCCCCC', 24276),
  ('CCCCCCC=CCO', 19074),
  ('C=CC(C)(O)CCC=C(C)CCC=C(C)C (mixture of isomers)', 11798),
  ('CCCCCCCCCCCCCCCC(=O)OC [MH(methyl hexadecanoate)]', 66556),
  ('C[C@@H]1CC[C@H]2C(C)(C)[C@H]3C[C@@]12CC[C@@]3(C)O', 24638),
  ('CC1=CC[C@@H](C(C)(C)O)CC1', 14309);

We now examine a further compound.
Query: Fluorescence competitive binding assay, OBP2 (raw fluorescence reading); subject: CCCCCCCCCCC
12819

----------
TARGET OR TEST SYSTEM: SfurOBP2 (Sogatella furcifera)
PROTOCOL NOTES: biochemical
Assay type: binding
SETTINGS: ligand concentration 4 (unit not given), replicate column 2 of 3
Method: Thirty-six rice odorants ([He et al., 2014]; [Wang et al., 2017]) and 1-N-phenyl-naphthylamine (1-NPN) were purchased from Sigma-Aldrich (St Louis, MO, USA). […] Fluorescence competitive binding assays were performed on Tecan Spark 10M (Tecan Group Ltd., Männedorf, Switzerland) with the F96 Black ELIAS Plate (Sangon) ([Khuhro et al., 2017]; [Liu et al., 2017]). The solutions were excited at 337 nm and emission spectra were recorded between 390 and 490 nm. […]
Below, each entry is listed with its recorded Fluorescence competitive binding assay, OBP2 (raw fluorescence reading).
# output: bare number, no unit

Study these solved cases before continuing.
INSERT INTO measurements (compound, target_or_test_system, value_observed) VALUES
  ('CCC/C=C/CO [(E)-2-hexenol]', 'SfurOBP2 (Sogatella furcifera)', 17308),
  ('CCCCCCCCCCCCCCCCCCC', 'SfurOBP2 (Sogatella furcifera)', 22088),
  ('CC/C=C\CCO [(Z)-3-hexenol]', 'SfurOBP2 (Sogatella furcifera)', 19781),
  ('CCCCCCCCCCCCC=O', 'SfurOBP2 (Sogatella furcifera)', 17637),
  ('CC(=O)c1ccccc1', 'SfurOBP2 (Sogatella furcifera)', 18805),
  ('C=C/C(C)=C/C/C=C(\C)CCC=C(C)C', 'SfurOBP2 (Sogatella furcifera)', 17105);

Query: Fluorescence competitive binding assay, OBP2 (raw fluorescence reading); subject: c1ccc2ccccc2c1
22710

The origin of these recorded values is paper PMC6409085.
